- System: Escherichia coli ATCC25922
- protocol_text: MIC by broth microdilution (CLSI) against Escherichia coli ATCC 25922
- Assay type: cell-based
- applied_conditions: Escherichia coli ATCC25922, in vitro; read-out: MIC
Structures can show the parent of a compound that is named as a salt.
value_type: MIC (µg/mL)
Quick note: give the figure in µg/mL, leave out the unit.

Inquiry: I'd like to know its MIC. The molecule in question is C[C@@H]1CC[C@@]23CCC(=O)[C@H]2[C@]1(C)[C@H](OC(=O)CSc1ccc(CC(=O)NCCCN)cc1)C[C@](C)(CCNCCCN)[C@@H](O)[C@@H]3C [Example 52, trihydrochloride]
Reply text: 0.5

Inquiry: // same read-out, input: C[C@@H]1CC[C@@]23CCC(=O)[C@H]2[C@]1(C)[C@H](OC(=O)CSC1CCN(C(=O)CN)CC1)C[C@](C)(CNCc1ccc(OCCN)cc1)[C@@H](O)[C@@H]3C [Example 83, trihydrochloride]
Reply text: 1

Inquiry: // same read-out, input: C[C@@H]1CC[C@@]23CCC(=O)[C@H]2[C@]1(C)[C@H](OC(=O)CSC1CCN(C(=O)CN)CC1)C[C@](C)(CCCCCCCCN)[C@@H](O)[C@@H]3C [Example 146, dihydrochloride]
Reply text: 8

Inquiry: // same read-out, input: C[C@@H]1CC[C@@]23CCC(=O)[C@H]2[C@]1(C)[C@H](OC(=O)CSc1ccc(CC(=O)NCCCN)cc1)C[C@](C)(CNCCCN)[C@@H](O)[C@@H]3C [Example 1, trihydrochloride]
Reply text: 0.5
